tested on: 885724-159-R-J1-PDC complex spheroid viability; assay: Anticancer human tumor 885724-159-R-J1-PDC patient-derived pancreatic adenocarcinoma cell line growth inhibition [POLQ]; conditions: second compound 0.1 µM; first compound 10 µM; stronger effect = lower value
Field 'label' (enum: Y / N). Set to Y when viability, T/C is strictly under 40%; else N.

Example results:
compound="CCCS(=O)(=O)Nc1ccc(F)c(C(=O)c2c[nH]c3ncc(-c4ccc(Cl)cc4)cc23)c1F + Nc1ccc(C#CCN(C(=O)Cc2ncc(C(F)(F)F)cc2C(F)(F)F)c2ccc(F)cc2)nn1" target_under_test="885724-159-R-J1-PDC complex spheroid viability" classification=N
compound="Nc1ccn(C2OC(CO)C(O)C2(F)F)c(=O)n1 (stereo unspecified) + Nc1ccc(C#CCN(C(=O)Cc2ncc(C(F)(F)F)cc2C(F)(F)F)c2ccc(F)cc2)nn1" target_under_test="885724-159-R-J1-PDC complex spheroid viability" classification=N
compound="CC(C)n1c(=O)n(C)c2cnc3cc(F)c(-c4ccc(OCCCN5CCCCC5)nc4)cc3c21 + Cc1cccc(N(C)C(=O)C2C(O)CCN2c2nc(C)cc(C(F)(F)F)c2C#N)c1" target_under_test="885724-159-R-J1-PDC complex spheroid viability" classification=N
compound="COc1cc(C2c3cc4c(cc3C(OC3OC5COC(C)OC5C(O)C3O)C3COC(=O)C23)OCO4)cc(OC)c1O (stereo unspecified) + COC1C(OC(N)=O)C(O)C(Oc2ccc3c(O)c(NC(=O)c4ccc(O)c(CC=C(C)C)c4)c(=O)oc3c2C)OC1(C)C" target_under_test="885724-159-R-J1-PDC complex spheroid viability" classification=N

q: Report whether reported viability, T/C is lower than 40% (strictly) for C#Cc1c(F)ccc2cc(O)cc(-c3ncc4c(N5CC6CCC(C5)N6)nc(OCC56CCCN5CC(F)C6)nc4c3F)c12 (stereo unspecified) + COC1C(OC(N)=O)C(O)C(Oc2ccc3c(O)c(NC(=O)c4ccc(O)c(CC=C(C)C)c4)c(=O)oc3c2C)OC1(C)C
a: Y

###

system: 885724-159-R-J1-PDC complex spheroid viability; test: Anticancer human tumor 885724-159-R-J1-PDC cell line growth inhibition [POLQ]; settings: second compound 0.0316 µM; first compound 0.316 µM; stronger effect = lower value;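 note: spheroids exposed to compounds for 7 days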
Give measured viability, T/C for each item. Keep answers brief.
One number for each entry, in %.

compound="O=c1[nH]cc(F)c(=O)[nH]1 + COC1C(OC(N)=O)C(O)C(Oc2ccc3c(O)c(NC(=O)c4ccc(O)c(CC=C(C)C)c4)c(=O)oc3c2C)OC1(C)C" scale_unit=% reported_result=91.6
compound="CC1COCCN1c1cc(-c2ccnn2C)c2ccnc(-c3ccn[nH]3)c2n1 (configuration not stated) + Cc1cccc(N(C)C(=O)C2C(O)CCN2c2nc(C)cc(C(F)(F)F)c2C#N)c1" scale_unit=% reported_result=52.3
compound="CC1COCCN1c1cc(C2(O)CC3CCC(C2)O3)c2cnn(-c3ccn[nH]3)c2n1 (configuration not stated) + Cc1cccc(N(C)C(=O)C2C(O)CCN2c2nc(C)cc(C(F)(F)F)c2C#N)c1" scale_unit=% reported_result=41.6
compound="CC1COCCN1c1cc(C2(S(C)(=N)=O)CC2)nc(-c2ccnc3[nH]ccc23)n1 (configuration not stated) + Nc1ccc(C#CCN(C(=O)Cc2ncc(C(F)(F)F)cc2C(F)(F)F)c2ccc(F)cc2)nn1" scale_unit=% reported_result=90.4
compound="C=CCn1c(=O)c2cnc(Nc3ccc(N4CCN(C)CC4)cc3)nc2n1-c1cccc(C(C)(C)O)n1 + Cc1cccc(N(C)C(=O)C2C(O)CCN2c2nc(C)cc(C(F)(F)F)c2C#N)c1" scale_unit=% reported_result=56.5
compound="O=C(Nc1ccc(O)c(NS(=O)(=O)c2ccc(F)cc2)c1)c1ccc(-c2ccccc2)cc1 + Cc1cccc(N(C)C(=O)C2C(O)CCN2c2nc(C)cc(C(F)(F)F)c2C#N)c1" scale_unit=% reported_result=101
compound="CC1COCCN1c1cc(-c2ccnn2C)c2ccnc(-c3ccn[nH]3)c2n1 (configuration not stated) + COC1C(OC(N)=O)C(O)C(Oc2ccc3c(O)c(NC(=O)c4ccc(O)c(CC=C(C)C)c4)c(=O)oc3c2C)OC1(C)C" scale_unit=% reported_result=44.3
compound="COc1cccc(OCCCN)c1-c1cc(Nc2cnc(C#N)cn2)n[nH]1 + Cc1cccc(N(C)C(=O)C2C(O)CCN2c2nc(C)cc(C(F)(F)F)c2C#N)c1" scale_unit=% reported_result=46.4
compound="COc1cccc(OCCCN)c1-c1cc(Nc2cnc(C#N)cn2)n[nH]1 + Nc1ccc(C#CCN(C(=O)Cc2ncc(C(F)(F)F)cc2C(F)(F)F)c2ccc(F)cc2)nn1" scale_unit=% reported_result=45.7
compound="CCCS(=O)(=O)Nc1ccc(F)c(C(=O)c2c[nH]c3ncc(-c4ccc(Cl)cc4)cc23)c1F + COC1C(OC(N)=O)C(O)C(Oc2ccc3c(O)c(NC(=O)c4ccc(O)c(CC=C(C)C)c4)c(=O)oc3c2C)OC1(C)C" scale_unit=% reported_result=140

List reported viability, T/C for each of these compounds:
1. CCc1cc2c(N3CCc4c(cc(Cn5ccnc5)cc4-c4cn(C)nc4C(F)(F)F)C3=O)ccnc2c(OC)n1 + Cc1cccc(N(C)C(=O)C2C(O)CCN2c2nc(C)cc(C(F)(F)F)c2C#N)c1
2. CCc1cc2c(N3CCc4c(cc(Cn5ccnc5)cc4-c4cn(C)nc4C(F)(F)F)C3=O)ccnc2c(OC)n1 + COC1C(OC(N)=O)C(O)C(Oc2ccc3c(O)c(NC(=O)c4ccc(O)c(CC=C(C)C)c4)c(=O)oc3c2C)OC1(C)C
3. CCc1cc2c(N3CCc4c(cc(Cn5ccnc5)cc4-c4cn(C)nc4C(F)(F)F)C3=O)cc(C)nc2c(OC)n1 + Cc1cccc(N(C)C(=O)C2C(O)CCN2c2nc(C)cc(C(F)(F)F)c2C#N)c1
4. C=CC(=O)N1CCN(c2nc(=O)n(-c3c(C)ccnc3C(C)C)c3nc(-c4c(O)cccc4F)c(F)cc23)C(C)C1 (configuration not stated) + Cc1cccc(N(C)C(=O)C2C(O)CCN2c2nc(C)cc(C(F)(F)F)c2C#N)c1
5. CCc1cc2c(N3CCc4c(cc(Cn5ccnc5)cc4-c4cn(C)nc4C(F)(F)F)C3=O)cc(C)nc2c(OC)n1 + Nc1ccc(C#CCN(C(=O)Cc2ncc(C(F)(F)F)cc2C(F)(F)F)c2ccc(F)cc2)nn1

a:
1: 81.8; 2: 75.5; 3: 84.8; 4: 99.5; 5: 79.4

// each compound listed below needs its viability, T/C
1. COc1cc2cc(C(=O)CCC(=O)O)sc2cc1OC + COC1C(OC(N)=O)C(O)C(Oc2ccc3c(O)c(NC(=O)c4ccc(O)c(CC=C(C)C)c4)c(=O)oc3c2C)OC1(C)C
2. CC1COCCN1c1cc(C2(O)CC3CCC(C2)O3)c2cnn(-c3ccn[nH]3)c2n1 (configuration not stated) + COC1C(OC(N)=O)C(O)C(Oc2ccc3c(O)c(NC(=O)c4ccc(O)c(CC=C(C)C)c4)c(=O)oc3c2C)OC1(C)C

a:
1: 100; 2: 38.8

###

system: 885724-159-R-J1-PDC complex spheroid viability; assay: Anticancer human tumor 885724-159-R-J1-PDC cell line growth inhibition [POLQ]; conditions: second compound 0.316 µM; first compound 0.0316 µM; stronger effect = lower value;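 note: spheroids exposed to compounds for 7 days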
recorded_endpoint: viability, T/C (%)
Numbers only, in %.

These recorded examples may help you get a feel for the data.
compound="CC1COCCN1c1cc(C2(O)CC3CCC(C2)O3)c2cnn(-c3ccn[nH]3)c2n1 (stereo not drawn) + Cc1cccc(N(C)C(=O)C2C(O)CCN2c2nc(C)cc(C(F)(F)F)c2C#N)c1" scale_unit=% reported_result=70.4
compound="CNCc1ccc(-c2[nH]c3cc(F)cc4c3c2CCNC4=O)cc1 + Cc1cccc(N(C)C(=O)C2C(O)CCN2c2nc(C)cc(C(F)(F)F)c2C#N)c1" scale_unit=% reported_result=104

Alright, here's another compound for you.
q: Which measured viability, T/C belongs to C=CC(=O)N1CCN(c2nc(=O)n(-c3c(C)ccnc3C(C)C)c3nc(-c4c(O)cccc4F)c(F)cc23)C(C)C1 (stereo not drawn) + Cc1cccc(N(C)C(=O)C2C(O)CCN2c2nc(C)cc(C(F)(F)F)c2C#N)c1 , tested on 885724-159-R-J1-PDC complex spheroid viability?
a: 98.6
